Study Target: Sigma-2 receptor (Homo sapiens, UniProt Q5BJF2)
Sequence (Q5BJF2 whole entry): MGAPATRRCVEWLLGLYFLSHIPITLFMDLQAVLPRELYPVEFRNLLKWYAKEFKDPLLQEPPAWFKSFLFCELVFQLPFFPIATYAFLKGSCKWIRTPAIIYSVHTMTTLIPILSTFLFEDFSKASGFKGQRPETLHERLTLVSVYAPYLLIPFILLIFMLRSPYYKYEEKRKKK
Measured Endpoint: Ki

{"columns": ["Compound", "Result"],
 "data": [
  ["CC(C)n1c(=O)c(C(=O)NCCCN2CCCCC2)c([O-])c2ccsc21.[K+] [PRX-3140 potassium salt]", "99 to 160 nM"]
]}

###

Study Target: UniProtKB Q99720
Sequence (Q99720 whole entry): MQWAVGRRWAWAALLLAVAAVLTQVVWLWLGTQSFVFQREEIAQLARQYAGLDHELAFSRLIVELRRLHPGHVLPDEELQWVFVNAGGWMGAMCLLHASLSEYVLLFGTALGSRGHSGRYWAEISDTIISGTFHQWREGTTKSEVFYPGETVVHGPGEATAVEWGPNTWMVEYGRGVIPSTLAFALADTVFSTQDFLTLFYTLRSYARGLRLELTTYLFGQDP
pKi: −log10 of the molar value.

{"columns": ["Molecule", "Study Target", "pKi"],
 "data": [
  ["CC(C)n1c(=O)c(C(=O)NCCCN2CCCCC2)c([O-])c2ccsc21.[K+] [PRX-3140 potassium salt]", "UniProtKB Q99720", "7.00 to 7.10"]
]}
